- TEST SYSTEM: T1, Soluble IGF-1R (R&D Systems, Cat. # 391-GR/CF); recombinant human IGF-1R (human, UniProt P08069 31-935)
- T1 construct: extracellular domain; Eu3+-labelled in the TR-FRET assays; also called sIGF-1R; rhIGF-1R
- MEASUREMENT NOTES: phage ELISA, vs IR
Positions of bridges follow the written chain, without caps; N, C: chain ends. No end group written: not given here.
# IGF-1R/IR Comparison per record follows
Note to self: number, then unit, no commentary.

Example entries and their recorded answers appear below.
BINDER | IGF-1R/IR Comparison
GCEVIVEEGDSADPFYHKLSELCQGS (disulfide 2-23 (inferred)) [B6Hα-2-D1-IR] | 4.2 ratio
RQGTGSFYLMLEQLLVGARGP [20E2B-4-G11-IGFR] | 7 ratio
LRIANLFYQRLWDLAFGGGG [20E22-3-E8-IGFR] | 11.1 ratio
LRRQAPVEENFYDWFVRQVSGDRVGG [H2CA-3-D7-IGFR] | 3.7 ratio
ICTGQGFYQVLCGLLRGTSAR (disulfide 2-12 (inferred)) [20E2B-2-B3-IGFR] | 7.4 ratio
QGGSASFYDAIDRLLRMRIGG [20E2A-4-F11-IGFR] | 14.6 ratio
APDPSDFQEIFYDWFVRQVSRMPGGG [H2CA-1-A3-IGFR] | 5.1 ratio
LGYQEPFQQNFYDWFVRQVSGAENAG [E2CA-3-E8-IGFR] | 2.9 ratio
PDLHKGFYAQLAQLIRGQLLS [20E2H-3-E3-IGFR] | 13.1 ratio
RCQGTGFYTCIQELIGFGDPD (disulfide 2-10 (inferred)) [20E2B-4-E9-IGFR] | 5.6 ratio

Turning now to a further record.
According to the records, this binder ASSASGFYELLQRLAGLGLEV [20E2B-3-C4-1GFR] displays IGF-1R/IR Comparison of 6.2 ratio
